# assay.target: T1, CAPRIN-1 protein expressed on the membrane surface of human cancer cells (human, UniProt Q14444 2-709)
# T1 sequence (looked up): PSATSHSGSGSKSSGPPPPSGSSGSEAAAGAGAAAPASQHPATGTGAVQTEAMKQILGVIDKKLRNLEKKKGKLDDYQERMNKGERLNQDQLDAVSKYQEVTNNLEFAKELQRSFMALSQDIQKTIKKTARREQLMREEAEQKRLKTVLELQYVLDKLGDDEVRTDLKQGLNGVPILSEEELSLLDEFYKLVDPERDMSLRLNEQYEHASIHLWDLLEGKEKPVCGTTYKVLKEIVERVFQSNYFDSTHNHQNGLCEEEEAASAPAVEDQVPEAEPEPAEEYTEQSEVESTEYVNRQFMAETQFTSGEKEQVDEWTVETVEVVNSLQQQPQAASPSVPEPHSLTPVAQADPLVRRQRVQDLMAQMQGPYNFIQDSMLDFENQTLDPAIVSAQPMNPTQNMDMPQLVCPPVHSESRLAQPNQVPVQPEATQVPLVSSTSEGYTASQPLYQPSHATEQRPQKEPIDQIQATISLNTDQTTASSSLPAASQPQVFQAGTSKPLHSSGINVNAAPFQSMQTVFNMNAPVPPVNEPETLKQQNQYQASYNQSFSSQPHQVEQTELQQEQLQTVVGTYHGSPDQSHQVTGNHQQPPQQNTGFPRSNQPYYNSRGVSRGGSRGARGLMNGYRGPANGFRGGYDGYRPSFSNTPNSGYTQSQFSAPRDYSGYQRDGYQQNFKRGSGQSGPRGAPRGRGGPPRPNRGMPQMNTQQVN
# assay.protocol: cell-based or functional assay
experimental.endpoint: ADCC cytotoxic activity (51Cr release) on HT-1080

• humanized antibody #0 (antibody, V domains shown) VH: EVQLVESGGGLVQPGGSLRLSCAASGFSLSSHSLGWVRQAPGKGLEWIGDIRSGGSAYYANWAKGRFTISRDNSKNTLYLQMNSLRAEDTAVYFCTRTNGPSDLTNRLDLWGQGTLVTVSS VL: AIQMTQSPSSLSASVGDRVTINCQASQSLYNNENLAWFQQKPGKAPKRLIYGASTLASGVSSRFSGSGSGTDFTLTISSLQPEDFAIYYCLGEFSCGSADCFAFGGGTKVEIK = ≥ 20%
• humanized antibody #10 (antibody, V domains shown) VH: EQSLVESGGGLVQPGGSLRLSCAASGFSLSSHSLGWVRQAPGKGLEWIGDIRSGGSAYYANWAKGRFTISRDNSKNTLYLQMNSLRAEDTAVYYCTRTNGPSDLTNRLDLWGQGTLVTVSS VL: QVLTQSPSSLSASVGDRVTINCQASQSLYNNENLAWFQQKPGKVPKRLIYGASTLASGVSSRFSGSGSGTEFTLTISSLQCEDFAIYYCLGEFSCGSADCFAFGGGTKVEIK = ≥ 30%
• humanized antibody #1 (antibody, V domains shown) VH: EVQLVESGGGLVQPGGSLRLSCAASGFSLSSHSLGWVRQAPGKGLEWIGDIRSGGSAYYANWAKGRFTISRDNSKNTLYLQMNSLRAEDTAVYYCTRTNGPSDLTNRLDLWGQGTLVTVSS VL: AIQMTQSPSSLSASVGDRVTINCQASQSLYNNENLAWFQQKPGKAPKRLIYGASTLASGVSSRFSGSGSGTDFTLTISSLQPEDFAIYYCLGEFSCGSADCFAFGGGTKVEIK = ≥ 20%
• humanized antibody #4 (antibody, V domains shown) VH: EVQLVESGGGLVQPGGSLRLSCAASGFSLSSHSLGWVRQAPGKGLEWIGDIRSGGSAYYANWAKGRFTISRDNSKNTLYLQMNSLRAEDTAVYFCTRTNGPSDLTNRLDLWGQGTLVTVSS VL: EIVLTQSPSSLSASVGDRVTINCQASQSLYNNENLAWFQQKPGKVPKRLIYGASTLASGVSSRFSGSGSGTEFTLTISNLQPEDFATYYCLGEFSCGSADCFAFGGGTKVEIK = ≥ 25%

Turning now to a further binder:
human-rabbit chimeric anti-CAPRIN-1 antibody (antibody, V domains shown) VH: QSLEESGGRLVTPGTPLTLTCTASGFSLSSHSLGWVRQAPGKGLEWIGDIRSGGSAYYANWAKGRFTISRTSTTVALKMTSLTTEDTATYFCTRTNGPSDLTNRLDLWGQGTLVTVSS VL: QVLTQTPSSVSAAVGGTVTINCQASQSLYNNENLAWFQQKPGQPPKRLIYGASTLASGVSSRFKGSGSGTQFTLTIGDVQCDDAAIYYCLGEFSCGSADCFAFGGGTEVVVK has a reported ADCC cytotoxic activity (51Cr release) on HT-1080 of ≥ 20%
